Entry source: patent US20260062443A1

Molecular target: UniProt P09871
Sequence (P09871 438-688 limits assumed): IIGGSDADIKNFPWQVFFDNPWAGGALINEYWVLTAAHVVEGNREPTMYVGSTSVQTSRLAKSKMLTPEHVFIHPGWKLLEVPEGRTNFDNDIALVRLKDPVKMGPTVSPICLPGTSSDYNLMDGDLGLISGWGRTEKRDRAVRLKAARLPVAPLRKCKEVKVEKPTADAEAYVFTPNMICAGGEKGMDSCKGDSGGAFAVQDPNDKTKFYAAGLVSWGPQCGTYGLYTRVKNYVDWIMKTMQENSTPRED
Sequence (P09871 16-437 partner limits assumed): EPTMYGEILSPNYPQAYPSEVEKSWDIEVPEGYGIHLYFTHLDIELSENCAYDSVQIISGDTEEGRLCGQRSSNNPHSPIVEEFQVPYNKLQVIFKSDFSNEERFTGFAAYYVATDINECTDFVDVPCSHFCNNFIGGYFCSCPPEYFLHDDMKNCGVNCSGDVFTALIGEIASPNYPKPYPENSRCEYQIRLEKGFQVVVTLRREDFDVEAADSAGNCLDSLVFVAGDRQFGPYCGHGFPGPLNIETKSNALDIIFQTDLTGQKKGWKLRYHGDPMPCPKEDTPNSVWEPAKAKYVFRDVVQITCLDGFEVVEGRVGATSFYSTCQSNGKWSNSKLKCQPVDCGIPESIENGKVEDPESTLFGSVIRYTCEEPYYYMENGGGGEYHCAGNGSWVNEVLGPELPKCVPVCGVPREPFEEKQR
Experiment: Human C1s enzyme assay
Type: biochemical
Details: human complement C1s enzyme 1.16 nM, substrate Z-L-Lys-SBzl 100 μM, 5 min preincubation; read-out: IC50 (Stars), C1s Inhibiting Activity
Quantity: IC50

Check out these entries, answers already filled in.
Cc1ccc(Oc2cccc(C(=O)NCC(=O)N3C[C@H](OC(F)F)C[C@H]3C(=O)NCc3c(C)cc(N)nc3C)c2F)cc1 | > 1000 nM
Cc1ccc2c(c1)oc1ccc(C(=O)NCC(=O)N3C[C@H](OC(F)F)C[C@H]3C(=O)NCc3cc4cnccc4[nH]3)cc12 | < 100 nM
O=C(NCC(=O)N1CC2(C[C@H]1C(=O)NCc1cc3cnccc3[nH]1)OCCO2)c1ccc(-c2ccccc2)cn1 | < 100 nM
C[C@@H](NC(=O)[C@@H]1C[C@@H](OC(F)F)CN1C(=O)CNC(=O)c1cnc2c(c1)Oc1ccccc1S2)c1cc2cnccc2[nH]1 | < 100 nM
C[C@@]12C[C@@H]1N(C(=O)CNC(=O)CCCOc1ccccc1)[C@H](C(=O)N[C@@H]1CCN(Cc3c[nH]cn3)C1=O)C2 | > 1000 nM

*Q* Look up IC50 for this compound: COC[C@@]1(F)C[C@@H](C(=O)N[C@H](C)c2cc3cnccc3[nH]2)N(C(=O)CNC(=O)c2ccc3c(c2)Oc2ccccc2S3)C1
*A* < 100 nM

* * *

Overview of reported pIC50 across a group of compounds:
Target: Human complement C1s enzyme (Homo sapiens, UniProt P09871)
Sequence (P09871 438-688 limits assumed): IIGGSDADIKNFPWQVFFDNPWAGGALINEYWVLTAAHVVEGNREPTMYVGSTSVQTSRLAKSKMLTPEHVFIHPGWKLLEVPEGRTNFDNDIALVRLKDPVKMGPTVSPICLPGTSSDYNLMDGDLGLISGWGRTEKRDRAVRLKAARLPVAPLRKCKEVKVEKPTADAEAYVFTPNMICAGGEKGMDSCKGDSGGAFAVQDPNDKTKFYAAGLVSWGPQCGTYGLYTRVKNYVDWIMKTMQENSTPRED
Sequence (P09871 16-437 partner limits assumed): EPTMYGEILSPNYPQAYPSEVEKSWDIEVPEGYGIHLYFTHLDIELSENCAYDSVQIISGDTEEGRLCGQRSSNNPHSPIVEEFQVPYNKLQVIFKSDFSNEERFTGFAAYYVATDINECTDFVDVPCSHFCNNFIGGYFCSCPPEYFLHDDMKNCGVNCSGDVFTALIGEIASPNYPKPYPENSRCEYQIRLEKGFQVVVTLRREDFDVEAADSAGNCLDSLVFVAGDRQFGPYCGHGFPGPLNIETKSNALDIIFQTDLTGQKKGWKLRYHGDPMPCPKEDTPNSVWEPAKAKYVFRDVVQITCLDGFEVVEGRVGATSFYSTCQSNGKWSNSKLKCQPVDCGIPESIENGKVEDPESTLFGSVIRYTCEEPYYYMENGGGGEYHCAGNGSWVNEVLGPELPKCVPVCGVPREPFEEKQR
Test: Human C1s enzyme assay
Format: biochemical
Details: human complement C1s enzyme 1.16 nM, substrate Z-L-Lys-SBzl 100 μM, 5 min preincubation; read-out: IC50 (Stars), C1s Inhibiting Activity
pIC50: −log10 of the molar value.

O=C(NCc1cc2cnccc2[nH]1)[C@@H]1C[C@@H](OC(F)F)CN1C(=O)CN1Cc2ncc(-c3ccc(F)cc3)cc2C1=O | < 6.00
O=C(NCC(=O)N1C[C@H](OC(F)F)C[C@H]1C(=O)NCc1cc2cnccc2[nH]1)c1cccc(Oc2cc(F)ccc2F)c1 | > 7.00

Now take the following compound into account.
*Q* Fill in the blank: the reported pIC50 of CCc1ccc(Oc2cc(F)cc(C(=O)NCC(=O)N3C[C@@](F)(Cn4ccnc4)C[C@H]3C(=O)NCc3cc4cnccc4[nH]3)c2)cc1 is ____.
*A* > 7.00

* * *

Target: Human complement C1s enzyme (Homo sapiens, UniProt P09871)
Experiment: Human C1s enzyme assay
Format: biochemical
Details: human complement C1s enzyme 1.16 nM, substrate Z-L-Lys-SBzl 100 μM, 5 min preincubation; read-out: IC50 (Stars), C1s Inhibiting Activity
pIC50: −log10 of the molar value.
Documented pIC50 across a set of compounds

Some compounds with recorded pIC50:
C[C@@]12C[C@@H]1N(C(=O)CNC(=O)c1ccc3oc4ccccc4c3c1)[C@H](C(=O)NCc1cc3cnccc3[nH]1)C2 [Compound 203] | > 7.00
C[C@@H](NC(=O)[C@@H]1C[C@](F)(CF)CN1C(=O)CNC(=O)c1ccc(-c2ccccc2)cc1)c1cc2cnccc2[nH]1 [Compound 84] | < 6.00

Kindly consider the entry below.
*Q* Under Human complement C1s enzyme (Homo sapiens, UniProt P09871): pIC50 value of Cc1ccc(Oc2cccc(C(=O)NCC(=O)N3C[C@@](F)(CF)C[C@H]3C(=O)NCc3cc4cnccc4[nH]3)c2)c(F)c1 [Compound 319] ?
*A* > 7.00

* * *

Molecular target: UniProt:P09871
Sequence (P09871 438-688 limits assumed): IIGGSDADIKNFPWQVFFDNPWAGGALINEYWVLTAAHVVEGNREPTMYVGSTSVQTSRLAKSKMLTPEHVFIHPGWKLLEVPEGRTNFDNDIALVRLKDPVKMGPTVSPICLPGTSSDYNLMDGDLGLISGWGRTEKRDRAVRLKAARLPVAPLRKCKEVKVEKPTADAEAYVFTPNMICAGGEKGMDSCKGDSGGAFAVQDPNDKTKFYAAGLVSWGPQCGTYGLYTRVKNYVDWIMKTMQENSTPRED
Sequence (P09871 16-437 partner limits assumed): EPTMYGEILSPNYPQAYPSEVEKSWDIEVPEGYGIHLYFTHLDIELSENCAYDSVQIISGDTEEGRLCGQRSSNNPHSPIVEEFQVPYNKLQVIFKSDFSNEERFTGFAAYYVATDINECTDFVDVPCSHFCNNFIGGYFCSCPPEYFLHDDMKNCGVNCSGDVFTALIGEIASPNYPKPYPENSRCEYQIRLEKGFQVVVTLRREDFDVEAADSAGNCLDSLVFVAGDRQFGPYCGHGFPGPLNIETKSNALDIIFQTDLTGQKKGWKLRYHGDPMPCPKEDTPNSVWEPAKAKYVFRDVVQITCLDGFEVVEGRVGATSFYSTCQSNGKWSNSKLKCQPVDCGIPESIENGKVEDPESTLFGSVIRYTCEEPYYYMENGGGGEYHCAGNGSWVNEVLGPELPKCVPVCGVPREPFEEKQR
Test: Human C1s enzyme assay
Assay type: biochemical
Conditions: human complement C1s enzyme 1.16 nM, substrate Z-L-Lys-SBzl 100 μM, 5 min preincubation; read-out: IC50 (Stars), C1s Inhibiting Activity
pIC50: −log10 of the molar value.
A collection of compounds and their measured pIC50

*Q* Under UniProt:P09871: pIC50 value of Cc1ccc(Oc2cccc(C(=O)NCC(=O)N3[C@H]4C[C@@]4(C)C[C@H]3C(=O)N[C@H](C)c3cc4cnccc4[nH]3)c2)c(F)c1 ?
*A* > 7.00

*Q* Can you look up pIC50 on UniProt:P09871 for C[C@@H](NC(=O)[C@@H]1C[C@@H](c2nccs2)CN1C(=O)CNC(=O)c1ccc2c(c1)Oc1ccccc1S2)c1cc2cnccc2[nH]1 ?
*A* > 7.00

*Q* Which measured pIC50 belongs to C[C@@H](NC(=O)[C@@H]1C[C@]2(C)C[C@@H]2N1C(=O)CN1Cc2cc(-c3ccc(F)cc3F)ccc2C1=O)c1cc2cnccc2[nH]1 , tested on UniProt:P09871?
*A* > 7.00

*Q* What value of pIC50 on UniProt:P09871 does Cc1ccc(Oc2cccc(C(=O)NCC(=O)N3C[C@H](OC(F)F)C[C@H]3C(=O)NCc3cc4cnccc4[nH]3)c2)c(Cl)c1 have?
*A* > 7.00

*Q* Query for UniProt:P09871: what pIC50 does the record show for O=C(NCC(=O)N1C[C@@](F)(CF)C[C@H]1C(=O)N[C@H](CO)c1cc2cnccc2[nH]1)c1ccc(Oc2ccc(F)cc2)cc1 ?
*A* < 6.00

*Q* Value wanted: pIC50 (UniProt:P09871) of entry O=C(NCC(=O)N1C[C@H](OC(F)F)C[C@H]1C(=O)NCc1cc2cnccc2[nH]1)c1cccc(Oc2ccc(F)cc2F)c1
*A* > 7.00
